Target: T1, AAV8 (adeno-associated virus 8)
T1 construct: also called adeno-associated virus serotype 8
Test: SPR, AAV amine-coupled to CM5 chip;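 note: nanobodies flowed as analyte at seven concentrations spanning 1–100 nM over immobilized AAV (500–800 RU), kinetic constants derived by fitting the binding curves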
Label yes (1) when koff < 0.0006 s⁻¹; otherwise no (0).

*Q* For this binder, is koff lower than 0.0006 s⁻¹? A4-097 (VHH) VHH: VQLQESGGGLVQPGGSLRLSCIASGSIFSANTMGWYRQAPGKQRELVATITRGGNTNYGDSVKGRFTISRDNAKNTVYLQMNTLRPEDTAVYYCHVDEIRESSWTTSNLWGQGTQVTVSS
*A* no (0)

*Q* For this binder, is koff lower than 0.0006 s⁻¹? A4-087 (VHH) VHH: VQLQESGGGLVQPGGSLRLSCAASGSRFSLNTMGWYRQAPGKQRELVAAVTRGGNTNYGDFVKGRFTISRDNAKNTVYLQMNSLRPEDTAVYYCHVDELRESSWTTSNLWGQGTQVTVSS
*A* yes (1)

*Q* For this binder, is koff lower than 0.0006 s⁻¹? A4-075 (VHH) VHH: VQLQESGGGLVQSGGSLRLSCAASGSMFSLNTMGWYRQAPGKQRELVATITRGGGTNYADSVKGRFTISRDNAKNTVYLQMNSLRPEDTAVYYCHVDELRQSSWTTSNLWGQGTQVTVSS
*A* no (0)

*Q* For this binder, is koff lower than 0.0006 s⁻¹? A4-071 (VHH) VHH: VQLQESGGGAVQAGGSLRLSCAASGSTFSINTMGWYRQAPGKQRELVATVTRGGSTNYGDFVKGRFTISRDNAKNTVYLQMNTLRPEDTAVYYCHLDEVRQSSWTTSNLWGQGTQVTVSS
*A* no (0)

*Q* For this binder, is koff lower than 0.0006 s⁻¹? A4-063 (VHH) VHH: VQLQESGGGLVQPGGSLRLSCAASGRRFTINTMGWYRRAPGKQRELVATITRGGSTNYAGSVKGRFTISRDNPKNTVYLQMNSLRPEDTAVYYCHIDEVRQSSWTTSNLWGQGTQVTVSS
*A* no (0)

*Q* For this binder, is koff lower than 0.0006 s⁻¹? A4-060 (VHH) VHH: VQLQESGGGLVQPGGSLRLSCAASGSTFSLNTMGWYRQAPGKQREIVATVTRGGSTNYAESVKGRFTISRDNAKNTVYLQMNSLRPEDTAVYYCHVDEVRQSTWTTSNLWGQGTQVTVSS
*A* yes (1)
